Where do the numbers come from? From patent US9073821B2.

# system: Pseudomonas aeruginosa LpxC enzyme (Pseudomonas aeruginosa (strain ATCC 15692 / DSM 22644 / CIP 104116 / JCM 14847 / LMG 12228 / 1C / PRS 101 / PAO1))
# protocol-notes: biochemical
# Type: biochemical
# experimental-parameters: class symbols A/B/C by IC50; Table 3; read-out: Enzyme inhibitory activity (inhibitory activity on Pseudomonas aeruginosa LpxC enzyme)
property-measured: IC50

Inquiry: Answer with the recorded IC50 of CNC(=O)C(C(=O)NO)N(C)C(=O)c1ccc(C#Cc2ccc(CN3CC4CC4C3)cc2)cc1 (stereo not shown) only.
Reply text: < 10 nM

Inquiry: Output measured IC50 for this item: CNC(=O)C(C(=O)NO)N(C)C(=O)c1ccc(C#CC2CC2)cc1 (stereo not shown)
Reply text: > 100 nM

Inquiry: # return recorded IC50 for entry CNC(=O)C(C(=O)NO)N(C)C(=O)c1ccc(C#Cc2cnn(CCOC)c2)cc1 (stereo not shown)
Reply text: 10 to 100 nM

Inquiry: Tell me measured IC50 for CNC(=O)[C@@](C)(C(=O)NO)N(C)C(=O)c1ccc(C#Cc2coc(CO)c2)cc1 please.
Reply text: < 10 nM

* * *

# system: Pseudomonas aeruginosa LpxC enzyme (Pseudomonas aeruginosa (strain ATCC 15692 / DSM 22644 / CIP 104116 / JCM 14847 / LMG 12228 / 1C / PRS 101 / PAO1), UniProt P47205)
# protocol-notes: biochemical
# Type: biochemical
# experimental-parameters: inhibitory activity on Pseudomonas aeruginosa LpxC enzyme, class symbols A/B/C; read-out: Enzyme inhibitory activity
pIC50: −log10 of the molar value.
property-measured: pIC50

Inquiry: Entry CNC(=O)C(C(=O)NO)N(C)C(=O)c1ccc(-c2ccc(OCCOC)cc2)cc1 (stereo not drawn) needs its pIC50 filled in; supply it.
Reply text: > 8.00

Inquiry: Give the reported value of pIC50 for this record: CNC(=O)C(C(=O)NO)N(C)C(=O)c1ccc(-c2ccccc2)s1 (stereo not drawn)
Reply text: < 7.00

Inquiry: Give me measured pIC50, please, for this compound: CNC(=O)C(C(=O)NO)N(C)C(=O)c1ccc(-c2ccc(NCCCNc3ccccc3)cc2)cc1 (stereo not drawn)
Reply text: > 8.00

Inquiry: Consider the compound CNC(=O)C(C(=O)NO)N(C)C(=O)c1ccc(-c2ccc(N(C)C(=O)OC(C)(C)C)c(C)c2)cc1 (stereo not drawn) and give its recorded pIC50.
Reply text: 7.00 to 8.00

Inquiry: Answer with the recorded pIC50 for the compound listed here: CNC(=O)C(C)(C(=O)NO)N(C)C(=O)c1ccc(-c2ccc(C)cc2)cc1 (stereo not drawn)
Reply text: > 8.00

Inquiry: Report measured pIC50; entry is CNC(=O)[C@@](C)(C(=O)NO)N(C)C(=O)c1ccc(C#Cc2cnn(C)c2)cc1
Reply text: > 8.00

Inquiry: Tell me pIC50 reported for CNC(=O)C(C(=O)NO)N(C)C(=O)c1ccc(-c2ccc(OC)c(OC)c2)cc1 (stereo not drawn)
Reply text: 7.00 to 8.00

Inquiry: Fill in pIC50 for record CCNC(=O)C(C(=O)NO)N(C)C(=O)c1ccc(-c2ccccc2)cc1 (stereo not drawn)
Reply text: 7.00 to 8.00

Inquiry: Identify measured pIC50 associated with O=C(NC(C(=O)NO)C(=O)NCCOc1ccccc1)c1ccc(-c2ccc(OCCO)cc2)cc1 (stereo not drawn)
Reply text: > 8.00

* * *

# system: Pseudomonas aeruginosa LpxC enzyme (Pseudomonas aeruginosa (strain ATCC 15692 / DSM 22644 / CIP 104116 / JCM 14847 / LMG 12228 / 1C / PRS 101 / PAO1))
# protocol-notes: biochemical
# Assay type: biochemical
# experimental-parameters: inhibitory activity on Pseudomonas aeruginosa LpxC enzyme, class symbols A/B/C; read-out: Enzyme inhibitory activity
property-measured: IC50

Inquiry: Indicate its recorded IC50; the molecule in question is Cn1nccc1CNC(=O)C(NC(=O)c1ccc(-c2ccc(OCCO)cc2)cc1)C(=O)NO (centres unmarked)
Reply text: < 10 nM

Inquiry: Specify reported IC50 for the molecule shown: CNC(=O)C(C(=O)NO)N(C)C(=O)c1ccc(C#Cc2ccc(CNC3CCCCC3)cc2)cc1 (centres unmarked)
Reply text: 10 to 100 nM

Inquiry: Determine its reported IC50: CN(C(=O)c1ccc(-c2ccccc2)cc1)C(C(=O)NO)C(=O)NCc1ccccc1 (centres unmarked)
Reply text: > 100 nM

Inquiry: For O=C(NC(C(=O)NO)C(=O)NCc1ccco1)c1ccc(-c2ccc(OCCO)cc2)cc1 (centres unmarked) , write its IC50.
Reply text: < 10 nM

Inquiry: Tell me measured IC50 for CNC(=O)C(C(=O)NO)N(C)C(=O)c1ccc(-n2cccc2)cc1 (centres unmarked) please.
Reply text: > 100 nM

Inquiry: Specify IC50 for Cn1ccnc1CNC(=O)C(NC(=O)c1ccc(-c2ccc(OCCO)cc2)cc1)C(=O)NO (centres unmarked) and stop.
Reply text: < 10 nM

Inquiry: Assign IC50 to the following record: CNC(=O)C(C(=O)NO)N(C)C(=O)c1ccc(C#Cc2ccc(CNC3CC3)cc2)cc1 (centres unmarked)
Reply text: < 10 nM

Inquiry: Fill in reported IC50 for this entry: CNC(=O)C(C)(C(=O)NO)N(C)C(=O)c1ccc(-c2ccc(OCCCN3CCOCC3)cc2)cc1 (centres unmarked)
Reply text: < 10 nM

Inquiry: Supply reported IC50 belonging to this molecule: CNC(=O)C(C(=O)NO)N(C)C(=O)c1ccc(-c2ccc3ncccc3c2)cc1 (centres unmarked)
Reply text: < 10 nM

Inquiry: Output measured IC50 for this item: CNC(=O)C(C(=O)NO)N(C)C(=O)c1ccc(-c2ccc(NC)c(C(F)(F)F)c2)cc1 (centres unmarked)
Reply text: < 10 nM

Inquiry: Fill in reported IC50 for this entry: CNC(=O)C(C(=O)NO)N(C)C(=O)c1ccc(-c2ccc3ncsc3c2)cc1 (centres unmarked)
Reply text: < 10 nM

Inquiry: Input CNC(=O)C(C(=O)NO)N(C)C(=O)c1ccc(-c2cccs2)cc1 (centres unmarked) , output reported IC50.
Reply text: 10 to 100 nM

Inquiry: Supply IC50 value. Item: CNC(=O)C(C(=O)NO)N(C)C(=O)c1ccc(-c2cncc(C(F)(F)F)c2)cc1 (centres unmarked)
Reply text: > 100 nM

Inquiry: Please give measured IC50 of the following entry: CNC(=O)C(C(=O)NO)N(C)C(=O)c1ccc(C#Cc2ccc(CN3CCCCC3)cc2)cc1 (centres unmarked)
Reply text: < 10 nM

Inquiry: Look up and state reported IC50 for CNC(=O)C(C(=O)NO)N(C)C(=O)c1ccc(-c2cc3ccccc3o2)cc1 (centres unmarked)
Reply text: < 10 nM

Inquiry: Hello, please tell me recorded IC50 for this one: CNC(=O)C(C(=O)NO)N(C)C(=O)c1ccc(-c2ccc(OC)nc2)cc1 (centres unmarked)
Reply text: 10 to 100 nM

Inquiry: Given the molecule Cn1ccc(CNC(=O)C(NC(=O)c2ccc(-c3ccc(OCCO)cc3)cc2)C(=O)NO)n1 (centres unmarked) , write its reported IC50.
Reply text: < 10 nM

Inquiry: Please report the measured IC50 for CNC(=O)C(C(=O)NO)N(C)C(=O)c1ccc(-c2ccc3c(cnn3C)c2)cc1 (centres unmarked)
Reply text: < 10 nM

Inquiry: Please list IC50 recorded for the molecule CCCNC(=O)C(NC(=O)c1ccc(-c2ccc(OCCO)cc2)cc1)C(=O)NO (centres unmarked)
Reply text: 10 to 100 nM

Inquiry: Name the recorded IC50 of the molecule listed here: CNC(=O)C(C(=O)NO)N(C)C(=O)c1ccc(-c2ccc(Cl)c(Cl)c2)cc1 (centres unmarked)
Reply text: < 10 nM

Inquiry: Answer with reported IC50 of CNC(=O)C(C(=O)NO)N(C)C(=O)c1ccc(-c2ccc(C(C)(F)F)cc2)cc1 (centres unmarked)
Reply text: < 10 nM

Inquiry: Kindly indicate its recorded IC50. Item: CNC(=O)C(C(=O)NO)N(C)C(=O)c1ccc(-c2ccc(OCCCN(C)C)cc2)cc1 (centres unmarked)
Reply text: 10 to 100 nM

Inquiry: Using the record for CNC(=O)C(C(=O)NO)N(C)C(=O)c1ccc(C#Cc2ccc(OCCN3CCOCC3)cc2)cc1 (centres unmarked) , state its measured IC50.
Reply text: < 10 nM

Inquiry: Supply recorded IC50 for O=C(NC(C(=O)NO)C(=O)NCC1CN(Cc2ccccc2)CCO1)c1ccc(-c2ccc(OCCO)cc2)cc1 (centres unmarked) here.
Reply text: < 10 nM

Inquiry: Output IC50 of CNC(=O)C(C(=O)NO)N(C)C(=O)c1ccc(-c2ccc(OCCN(C)c3ccccc3)cc2)cc1 (centres unmarked)
Reply text: < 10 nM

Inquiry: Identify measured IC50 associated with CNC(=O)C(C(=O)NO)N(C)C(=O)c1ccc(-c2ccc(OCCCN(C)CCOC)cc2)cc1 (centres unmarked)
Reply text: 10 to 100 nM

Inquiry: Indicate its recorded IC50; the molecule in question is CNC(=O)C(C(=O)NO)N(C)C(=O)c1ccc(-c2cc(Cl)cc(Cl)c2)cc1 (centres unmarked)
Reply text: 10 to 100 nM

Inquiry: Output measured IC50 for this item: CNC(=O)C(C(=O)NO)N(C)C(=O)c1ccc(-c2ccc(N3CCN(C)CC3)cc2)cc1 (centres unmarked)
Reply text: 10 to 100 nM

Inquiry: Answer with the recorded IC50 of CNC(=O)C(C(=O)NO)N(C)C(=O)c1ccc(C#Cc2csc(COC)c2)cc1 (centres unmarked) only.
Reply text: 10 to 100 nM

Inquiry: Determine its reported IC50: CCNc1ccc(-c2ccc(C(=O)N(C)C(C(=O)NC)C(=O)NO)cc2)cc1F (centres unmarked)
Reply text: < 10 nM

Inquiry: Answer with the recorded IC50 for the molecule listed here: CNC(=O)[C@@](C)(C(=O)NO)N(C)C(=O)c1ccc(-c2ccc(OCCN3CCOCC3)cc2)cc1
Reply text: < 10 nM

Inquiry: State, in one line, measured IC50 of CNC(=O)C(NC(=O)c1ccc(-c2ccccc2)cc1)C(=O)NO (centres unmarked)
Reply text: 10 to 100 nM
